biological target: Histamine H3 receptor (Cavia porcellus, UniProt Q9JI35); assay: Histamine H3 functional assay, guinea pig ileum (ileal longitudinal muscle, myenteric plexus); set-up: species or system tissue; conditions: antagonist affinity from rightward shift of R-(α)-methylhistamine E/[A] curves (Schild); typical variance ±0.15 log units; read-out: pKb (Guinea pig ileum) (converted)
Sequence (Q9JI35 whole entry): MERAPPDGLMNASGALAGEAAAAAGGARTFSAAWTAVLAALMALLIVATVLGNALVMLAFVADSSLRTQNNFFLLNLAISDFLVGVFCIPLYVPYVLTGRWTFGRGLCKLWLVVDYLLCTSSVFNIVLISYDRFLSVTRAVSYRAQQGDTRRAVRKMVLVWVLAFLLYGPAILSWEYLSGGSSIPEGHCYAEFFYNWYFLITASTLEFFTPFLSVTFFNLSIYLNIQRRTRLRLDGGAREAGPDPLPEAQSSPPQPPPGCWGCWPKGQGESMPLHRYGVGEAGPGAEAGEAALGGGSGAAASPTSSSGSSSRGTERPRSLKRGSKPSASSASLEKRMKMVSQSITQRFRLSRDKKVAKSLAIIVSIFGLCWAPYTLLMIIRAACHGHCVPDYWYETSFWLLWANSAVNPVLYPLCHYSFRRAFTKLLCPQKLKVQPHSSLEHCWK
Structures can show the parent of a compound that is named as a salt.
Consider the following molecules and their measured Kb readings.

molecule	prefix_operator	Kb (nM)
N=C(NCCCN1CCCC1)NCCc1ccc(Br)cc1 [Example 26, bis-hydrochloride]	=	158
CN1CCC[C@H]1CCCNS(=O)(=O)NCc1ccc(Br)cc1 [Example 113]	=	200
N=C(N)N(CCCCN1CCCC1)Cc1ccc(Cl)cc1 [Example 68, bis-hydrochloride]	=	50.1
CN1CCC[C@H]1CCCN(CCCc1ccc(Cl)cc1)S(=O)(=O)NCc1ccc(Cl)cc1 [Example 131]	>	3160
C[C@H](NC(=N)NCCCCCN1CCCC1)c1ccccc1 [Example 49, bis-hydrochloride]	=	31.6

* * *

target: Histamine H3 receptor (Cavia porcellus); test: Histamine H3 functional assay, guinea pig ileum (ileal longitudinal muscle, myenteric plexus); parameters: species or system tissue; conditions: antagonist affinity from rightward shift of R-(α)-methylhistamine E/[A] curves (Schild); typical variance ±0.15 log units; read-out: pKb (Guinea pig ileum) (converted)
Where a name gives a salt, the structure may show the parent alone.
# Kb per entry
readout_label: Kb (nM)

compound	target_entity	readout_label	display_unit	prefix_operator	reported_value
N=C(NCCCN1CCCC1)NCCC12CC3CC(CC(C3)C1)C2 [Example 33, bis-hydrochloride]	Histamine H3 receptor (Cavia porcellus)	Kb	nM	=	200
N=C(N)N(CCCCCCCCN1CCCC1)Cc1ccc(Cl)cc1 [Example 79, bis-hydrochloride]	Histamine H3 receptor (Cavia porcellus)	Kb	nM	=	7.94
CN1CCC[C@H]1CCCNS(=O)(=O)NCc1ccc(Cl)cc1 [Example 107]	Histamine H3 receptor (Cavia porcellus)	Kb	nM	=	158
O=S(=O)(NCCCCN1CCCC1)N(CCCCN1CCCC1)Cc1ccc(Cl)cc1 [Example 140]	Histamine H3 receptor (Cavia porcellus)	Kb	nM	=	316
CN1CCCC1CCCCCNS(=O)(=O)Cc1ccc(Cl)cc1 (stereo not drawn) [Example 105]	Histamine H3 receptor (Cavia porcellus)	Kb	nM	=	501
N=C(NCCCN1CCCC1)Nc1ccc(Cl)cc1 [Example 19]	Histamine H3 receptor (Cavia porcellus)	Kb	nM	=	1000
N=C(NCCCCCN1CCCC1)N1CCc2ccccc2C1 [Example 51, bis-hydrochloride]	Histamine H3 receptor (Cavia porcellus)	Kb	nM	=	100
CN1CCCC1CCCCS(=O)(=O)NCc1ccc(Cl)cc1 (stereo not drawn) [Example 136]	Histamine H3 receptor (Cavia porcellus)	Kb	nM	=	316
N=C(NCCCc1ccc(Cl)cc1)NCCCN1CCCC1 [Example 21, bis-hydrochloride]	Histamine H3 receptor (Cavia porcellus)	Kb	nM	=	158
N=C(NCCN1CCCC1)NCc1ccc(Cl)cc1 [Example 16, bis-hydrochloride]	Histamine H3 receptor (Cavia porcellus)	Kb	nM	=	3980
N=C(NCCCCCN1CCCC1)NCc1ccc2ccccc2c1 [Example 53, bis-hydrochloride]	Histamine H3 receptor (Cavia porcellus)	Kb	nM	=	79.4
N=C(N)NCCCN1CCCC1 [Example 1, bis-hydrochloride]	Histamine H3 receptor (Cavia porcellus)	Kb	nM	=	3980
Cc1ccccc1CN(CCCCCCN1CCCC1)C(=N)N [Example 76, bis-hydrochloride]	Histamine H3 receptor (Cavia porcellus)	Kb	nM	=	7.94
CN1CCC[C@H]1CCCN(C)S(=O)(=O)NCc1ccc(Cl)cc1 [Example 122]	Histamine H3 receptor (Cavia porcellus)	Kb	nM	=	316
CN1CCC[C@H]1CCCNS(=O)(=O)CCCc1ccc(Cl)cc1 [Example 103]	Histamine H3 receptor (Cavia porcellus)	Kb	nM	=	316
N=C(NCCCCCN1CCCC1)NCCCC12CC3CC(CC(C3)C1)C2 [Example 38, bis-hydrochloride]	Histamine H3 receptor (Cavia porcellus)	Kb	nM	=	63.1
CCCCNC(=N)NCCCCCN1CCCC1 [Example 65]	Histamine H3 receptor (Cavia porcellus)	Kb	nM	=	79.4
N=C(N)N(CCCCCCCCCN1CCCC1)Cc1ccc(Cl)cc1 [Example 80, bis-hydrochloride]	Histamine H3 receptor (Cavia porcellus)	Kb	nM	=	10
CN1CCC[C@H]1CCCNS(=O)(=O)Cc1ccc(Cl)cc1 [Example 99]	Histamine H3 receptor (Cavia porcellus)	Kb	nM	=	316
N=C(NCCCC1CCCCC1)NCCCN1CCCC1 [Example 43, bis-hydrochloride]	Histamine H3 receptor (Cavia porcellus)	Kb	nM	=	200
CC(C)CN1CCC[C@H]1CCCNS(=O)(=O)NCc1ccc(Cl)cc1 [Example 119]	Histamine H3 receptor (Cavia porcellus)	Kb	nM	=	2000
CC(C)CCNC(=N)NCCCCCN1CCCC1 [Example 66, bis-hydrochloride]	Histamine H3 receptor (Cavia porcellus)	Kb	nM	=	39.8
CN1CCC[C@H]1CCCN(CCCN1C(=O)c2ccccc2C1=O)S(=O)(=O)NCc1ccc(Cl)cc1 [Example 125]	Histamine H3 receptor (Cavia porcellus)	Kb	nM	>	3160
CN1CCC[C@H]1CCCNS(=O)(=O)c1ccc(Cl)cc1 [Example 98]	Histamine H3 receptor (Cavia porcellus)	Kb	nM	=	794
COc1ccc(CNC(=N)NCCCN2CCCC2)cc1Br [Example 7, bis-hydrochloride]	Histamine H3 receptor (Cavia porcellus)	Kb	nM	=	398
N=C(N)N(CCCCCN1CCCC1)Cc1ccc(Cl)cc1 [Example 69, bis-hydrochloride]	Histamine H3 receptor (Cavia porcellus)	Kb	nM	=	12.6
N=C(NCCCN1CCCC1)NCc1ccc(C(F)(F)F)cc1 [Example 5, bis-hydrochloride]	Histamine H3 receptor (Cavia porcellus)	Kb	nM	=	794
C[C@H](NC(=N)NCCCCN1CCCC1)C1CCCCC1 [Example 45, bis-hydrochloride]	Histamine H3 receptor (Cavia porcellus)	Kb	nM	=	31.6
N=C(N)N(CCCCCCN1CCCC1)Cc1ccc(Cl)cc1 [Example 70, bis-hydrochloride]	Histamine H3 receptor (Cavia porcellus)	Kb	nM	=	3.98
CN1CCC[C@H]1CCCNS(=O)(=O)N(C)Cc1ccc(Cl)cc1 [Example 121]	Histamine H3 receptor (Cavia porcellus)	Kb	nM	=	1000
CN1CCCC1CCCCNS(=O)(=O)NCc1ccc(Cl)cc1 (stereo not drawn) [Example 116]	Histamine H3 receptor (Cavia porcellus)	Kb	nM	=	200
N=C(NCCCN1CCCC1)NCCc1ccc(Cl)cc1 [Example 20, bis-hydrochloride]	Histamine H3 receptor (Cavia porcellus)	Kb	nM	=	200
N=C(NCCCN1CCCC1)NCc1ccccc1 [Example 8, bis-hydrochloride]	Histamine H3 receptor (Cavia porcellus)	Kb	nM	=	631
N=C(NCCCCc1ccccc1)NCCCN1CCCC1 [Example 22, bis-hydrochloride]	Histamine H3 receptor (Cavia porcellus)	Kb	nM	=	200
COc1ccc(C/N=C(\N)NCCCN2CCCC2)cc1 [Example 3, bis-hydrochloride]	Histamine H3 receptor (Cavia porcellus)	Kb	nM	=	794
CN(Cc1ccccc1)C(=N)NCCCCCN1CCCC1 [Example 50, bis-hydrochloride]	Histamine H3 receptor (Cavia porcellus)	Kb	nM	=	316

* * *

Measured Ki values are reported for all entries that follow.
Target: Histamine H3 receptor (Cavia porcellus, UniProt Q9JI35)
Experiment: Histamine H3 radioligand binding assay, guinea pig cortex ([3H]-R-α-methylhistamine)
Details: guinea pig cortex membranes, competition with 1 nM [3H]-R-α-methylhistamine; read-out: pKi (Guinea pig cortex) (converted)
Experimental: The compounds of the invention were also tested in a guinea pig cortex binding assay, as follows: Histamine H3 Radioligand Binding Assay—Guinea Pig Cortex Male Dunkin Hartley guinea pigs (200-300 g) were used. The whole brain was removed and immediately placed in ice-cold 20 mM Hepes-NaOH buffer (pH7.4 at 21±3° C.). […] Data are analysed using GraphPad prism and the general equation for a competition curve with variable Hill slope (nH). […]
Structures can show the parent of a compound that is named as a salt.

molecule	Ki
N=C(NCCCCCN1CCCC1)NCc1ccc(Cl)cc1 [Example 18, bis-hydrochloride]	0.00501 µM
[O-][S+](NCCCN1CCCC1)c1ccc2ccccc2c1 (stereo not drawn)	1.26 µM
CN1CCC[C@H]1CCCNS(=O)(=O)CCCc1ccc(Cl)cc1	0.126 µM
COC(=O)CN(CCC[C@@H]1CCCN1C)S(=O)(=O)NCc1ccc(Cl)cc1	0.251 µM
N=C(N)N(CCCCCN1CCCC1)Cc1ccc(Cl)cc1 [Example 69, bis-hydrochloride]	0.001 µM
O=S(=O)(CCCCN1CCCC1)c1ccc2ccccc2c1	0.631 µM
N=C(NCCCCN1CCCC1)NCc1ccc(C2CCCCC2)cc1 [Example 56, bis-hydrochloride]	0.02 µM
CN1CCCC1CCCCCNS(=O)(=O)Cc1ccc(Cl)cc1 (stereo not drawn)	0.398 µM
CN1CCC[C@H]1CCCNS(=O)(=O)NCc1ccc(Br)cc1	0.1 µM

* * *

target: Histamine H3 receptor (Cavia porcellus, UniProt Q9JI35); assay: Histamine H3 radioligand binding assay, guinea pig cortex ([3H]-R-α-methylhistamine); settings: guinea pig cortex membranes, competition with 1 nM [3H]-R-α-methylhistamine; read-out: pKi (Guinea pig cortex) (converted)
Structures can show the parent of a compound that is named as a salt.
readout_label: Ki (nM)

molecule	target_entity	reported_value
O=S(=O)(NCCN1CCCC1)c1ccc2ccccc2c1	Histamine H3 receptor (Cavia porcellus, UniProt Q9JI35)	126
O=S(=O)(NCCCCN1CCCC1)N(CCCCN1CCCC1)Cc1ccc(Cl)cc1	Histamine H3 receptor (Cavia porcellus, UniProt Q9JI35)	7.94
N=C(NCCCCCN1CCCC1)NCC1CCCCO1 (centres unmarked) [Example 58, bis-hydrochloride]	Histamine H3 receptor (Cavia porcellus, UniProt Q9JI35)	3.16
CN(CCN1CCCC1)S(=O)(=O)c1ccc2ccccc2c1	Histamine H3 receptor (Cavia porcellus, UniProt Q9JI35)	2510
N=C(NCCCCCN1CCCC1)NCc1ccccc1 [Example 47, bis-hydrochloride]	Histamine H3 receptor (Cavia porcellus, UniProt Q9JI35)	3.98
CN1CCC[C@H]1CCCNS(=O)(=O)NCc1ccccc1	Histamine H3 receptor (Cavia porcellus, UniProt Q9JI35)	1580
CN1CCC[C@H]1CCCNS(=O)(=O)Nc1ccc(Cl)cc1	Histamine H3 receptor (Cavia porcellus, UniProt Q9JI35)	398
CN1CCC[C@H]1CCCNS(=O)(=O)NCCc1ccc(Cl)cc1	Histamine H3 receptor (Cavia porcellus, UniProt Q9JI35)	1580
CN1CCC[C@H]1CCNS(=O)(=O)NCc1ccc(Cl)cc1	Histamine H3 receptor (Cavia porcellus, UniProt Q9JI35)	501
COc1ccc(C/N=C(\N)NCCCN2CCCC2)cc1 [Example 3, bis-hydrochloride]	Histamine H3 receptor (Cavia porcellus, UniProt Q9JI35)	79.4
N=C(NCCCN1CCCC1)NCCc1ccc(Cl)cc1 [Example 20, bis-hydrochloride]	Histamine H3 receptor (Cavia porcellus, UniProt Q9JI35)	1
CN1CCN(CCCCNS(=O)(=O)c2ccc3ccccc3c2)CC1	Histamine H3 receptor (Cavia porcellus, UniProt Q9JI35)	158
CN1CCCC1CCNS(=O)(=O)c1ccc(Cl)cc1 (centres unmarked)	Histamine H3 receptor (Cavia porcellus, UniProt Q9JI35)	1580
N=C(NCCCCN1CCCC1)NCc1ccc(Cl)cc1 [Example 17, bis-hydrochloride]	Histamine H3 receptor (Cavia porcellus, UniProt Q9JI35)	5.01
CN1CCCC1CCNS(=O)(=O)c1ccc2ccccc2c1 (centres unmarked)	Histamine H3 receptor (Cavia porcellus, UniProt Q9JI35)	100
CN1CCCC1CCNS(=O)(=O)c1cccc2ccccc12 (centres unmarked)	Histamine H3 receptor (Cavia porcellus, UniProt Q9JI35)	2510
CN1CCCC1CCCCS(=O)(=O)NCC1CCCCC1 (centres unmarked)	Histamine H3 receptor (Cavia porcellus, UniProt Q9JI35)	2510
Cc1ccccc1CN(CCCCCCN1CCCC1)C(=N)N [Example 76, bis-hydrochloride]	Histamine H3 receptor (Cavia porcellus, UniProt Q9JI35)	1.58
CN1CCC[C@H]1CCCNS(=O)(=O)Cc1ccccc1	Histamine H3 receptor (Cavia porcellus, UniProt Q9JI35)	200
CN1CCC[C@H]1CCCNS(=O)(=O)NCc1ccc(I)cc1	Histamine H3 receptor (Cavia porcellus, UniProt Q9JI35)	316
